Overview of recorded AC50 for various compounds
Molecular target: Voltage-dependent L-type calcium channel subunit alpha-1C (Homo sapiens, UniProt Q13936); further: assay procedure not described here
Sequence (Q13936 whole entry): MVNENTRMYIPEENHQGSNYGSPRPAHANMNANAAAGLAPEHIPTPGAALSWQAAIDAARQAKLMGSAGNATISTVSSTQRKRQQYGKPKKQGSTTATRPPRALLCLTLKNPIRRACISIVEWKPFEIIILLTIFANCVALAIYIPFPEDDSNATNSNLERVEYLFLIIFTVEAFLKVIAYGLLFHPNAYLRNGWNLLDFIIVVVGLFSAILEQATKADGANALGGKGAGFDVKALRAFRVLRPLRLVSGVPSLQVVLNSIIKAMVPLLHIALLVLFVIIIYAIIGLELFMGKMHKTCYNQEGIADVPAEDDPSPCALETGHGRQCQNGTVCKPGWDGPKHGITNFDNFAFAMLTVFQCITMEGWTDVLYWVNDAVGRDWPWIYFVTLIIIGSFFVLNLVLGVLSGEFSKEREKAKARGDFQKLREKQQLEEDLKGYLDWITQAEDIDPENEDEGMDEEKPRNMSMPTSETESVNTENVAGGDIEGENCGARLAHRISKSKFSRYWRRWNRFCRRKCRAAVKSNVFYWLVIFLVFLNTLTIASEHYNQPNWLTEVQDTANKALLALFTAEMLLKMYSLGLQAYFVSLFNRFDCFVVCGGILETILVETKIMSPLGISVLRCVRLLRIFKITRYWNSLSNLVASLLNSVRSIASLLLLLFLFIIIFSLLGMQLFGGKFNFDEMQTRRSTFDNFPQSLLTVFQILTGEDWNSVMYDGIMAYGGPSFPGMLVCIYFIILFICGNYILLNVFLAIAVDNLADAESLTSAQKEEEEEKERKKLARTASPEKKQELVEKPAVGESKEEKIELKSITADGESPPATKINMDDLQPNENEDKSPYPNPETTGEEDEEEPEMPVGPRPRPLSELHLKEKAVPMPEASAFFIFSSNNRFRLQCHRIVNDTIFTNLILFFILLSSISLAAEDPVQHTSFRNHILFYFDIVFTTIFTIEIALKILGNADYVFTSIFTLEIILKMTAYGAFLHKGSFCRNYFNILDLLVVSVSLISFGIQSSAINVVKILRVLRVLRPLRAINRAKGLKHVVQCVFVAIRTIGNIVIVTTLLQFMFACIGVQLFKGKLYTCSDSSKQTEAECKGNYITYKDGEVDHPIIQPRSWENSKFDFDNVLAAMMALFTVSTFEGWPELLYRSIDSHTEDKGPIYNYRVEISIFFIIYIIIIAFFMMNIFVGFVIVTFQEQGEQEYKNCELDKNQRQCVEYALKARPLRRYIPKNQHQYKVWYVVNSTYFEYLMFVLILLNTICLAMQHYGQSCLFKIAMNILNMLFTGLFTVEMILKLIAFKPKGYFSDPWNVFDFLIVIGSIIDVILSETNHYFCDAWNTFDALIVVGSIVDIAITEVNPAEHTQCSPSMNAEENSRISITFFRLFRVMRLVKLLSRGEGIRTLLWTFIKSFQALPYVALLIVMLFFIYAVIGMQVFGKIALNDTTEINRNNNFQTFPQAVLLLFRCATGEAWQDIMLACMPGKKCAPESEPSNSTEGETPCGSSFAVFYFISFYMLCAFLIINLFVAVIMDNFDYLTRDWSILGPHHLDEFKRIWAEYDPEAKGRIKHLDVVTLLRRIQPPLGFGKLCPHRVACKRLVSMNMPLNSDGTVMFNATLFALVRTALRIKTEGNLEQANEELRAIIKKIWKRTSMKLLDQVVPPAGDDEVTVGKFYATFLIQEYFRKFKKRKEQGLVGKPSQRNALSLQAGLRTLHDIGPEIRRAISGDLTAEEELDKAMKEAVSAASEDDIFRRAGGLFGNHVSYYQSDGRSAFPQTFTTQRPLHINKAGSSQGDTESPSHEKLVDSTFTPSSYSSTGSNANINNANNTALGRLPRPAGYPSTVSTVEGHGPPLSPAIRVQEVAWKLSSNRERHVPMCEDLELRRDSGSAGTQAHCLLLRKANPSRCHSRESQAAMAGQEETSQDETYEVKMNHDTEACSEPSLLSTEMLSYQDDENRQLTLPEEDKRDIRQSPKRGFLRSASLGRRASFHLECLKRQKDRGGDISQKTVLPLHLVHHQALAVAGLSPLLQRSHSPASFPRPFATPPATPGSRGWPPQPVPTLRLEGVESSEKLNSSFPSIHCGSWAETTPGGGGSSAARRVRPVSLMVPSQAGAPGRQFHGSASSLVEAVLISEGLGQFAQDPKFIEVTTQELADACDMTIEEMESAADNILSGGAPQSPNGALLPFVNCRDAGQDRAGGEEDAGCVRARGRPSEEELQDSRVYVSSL
Assay type: functional, cell-based

Worked examples follow.
# compound, obs value
rows = [
    ("COC(=O)C1=C(C)NC(C)=C(C(=O)OC(C)(C)CN(C)CCC(c2ccccc2)c2ccccc2)C1c1cccc([N+](=O)[O-])c1 (centres undefined)", "> 50 µM"),
    ("Clc1ccc(CCCOCCCN2CCCCC2)cc1", "10.4 µM"),
    ("CC[C@@H](C(N)=O)N1CCCC1=O", "> 50 µM"),
]

Now turn to the next compound.
Consider CC(=O)O[C@H]1CC[C@@]2(C)C(=CC[C@@H]3[C@@H]2CC[C@]2(C)C(c4cccnc4)=CC[C@@H]32)C1 [ABIRATERONE ACETATE] . Its measured AC50 is > 30 µM

###

Overview of recorded AC50 for various compounds
Target: Muscarinic acetylcholine receptor M1 (Homo sapiens); further: assay procedure not described here
Sequence (P11229 whole entry): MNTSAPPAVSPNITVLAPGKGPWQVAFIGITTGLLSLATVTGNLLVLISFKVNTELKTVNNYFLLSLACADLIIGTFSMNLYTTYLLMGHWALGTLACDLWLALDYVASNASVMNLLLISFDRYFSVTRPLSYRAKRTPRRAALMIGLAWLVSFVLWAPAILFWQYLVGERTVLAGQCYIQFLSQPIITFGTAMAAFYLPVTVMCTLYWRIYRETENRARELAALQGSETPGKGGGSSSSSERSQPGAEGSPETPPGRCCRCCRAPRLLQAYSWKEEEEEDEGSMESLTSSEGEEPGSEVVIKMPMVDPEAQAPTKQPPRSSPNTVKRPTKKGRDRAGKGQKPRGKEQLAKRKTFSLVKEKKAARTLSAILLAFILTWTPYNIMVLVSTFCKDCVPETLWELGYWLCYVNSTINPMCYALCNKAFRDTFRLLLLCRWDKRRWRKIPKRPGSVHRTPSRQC
Type: functional, cell-based

Worked examples follow.
# compound, AC50
data = [
    ("COCCCN1CCC(NC(=O)c2cc(Cl)c(N)c3c2OCC3)CC1 [PRUCALOPRIDE]", "> 30 µM"),
    ("CCC(C)(C)c1ccc(CC(C)CN2C[C@@H](C)O[C@@H](C)C2)cc1 (some centres undefined)", "10.8 µM"),
    ("CC(C)C[C@H]1C(=O)N2CCC[C@H]2[C@]2(O)O[C@](NC(=O)[C@@H]3C[C@@H]4c5cccc6[nH]cc(c56)C[C@H]4N(C)C3)(C(C)C)C(=O)N12 [DIHYDROERGOCRYPTINE]", "> 30 µM"),
]

Consider Nc1ccc(S(=O)(=O)c2cnc(N)s2)cc1 . Its measured AC50 is > 30 µM

###

This section lists AC50 readings for Adenosine receptor A2a (Homo sapiens, UniProt P29274).

# compound, target, obs value
records = [
    ("C[C@@H](O)[C@H]1C(=O)N2C(C(=O)O)=C(S[C@@H]3CN[C@H](C(=O)N(C)C)C3)[C@H](C)[C@H]12", "Adenosine receptor A2a (Homo sapiens, UniProt P29274)", "> 300 µM"),
    ("CC1=C(C(=O)O)N2C(=O)[C@@H](NC(=O)[C@H](N)c3ccccc3)[C@H]2SC1 [CEPHALEXIN ANHYDROUS]", "Adenosine receptor A2a (Homo sapiens, UniProt P29274)", "> 30 µM"),
    ("NS(=O)(=O)Cc1noc2ccccc12 [ZONISAMIDE]", "Adenosine receptor A2a (Homo sapiens, UniProt P29274)", "> 10 µM"),
]

Now turn to the next compound.
Consider O=C(O)C1=C(CSc2nnnn2CS(=O)(=O)O)CS[C@@H]2[C@H](NC(=O)[C@H](O)c3ccccc3)C(=O)N12 . Its measured AC50 is > 30 µM

###

This section lists AC50 readings for Vasopressin V2 receptor (Homo sapiens).

Worked examples follow.
# compound, recorded endpoint, obs value
data = [
    ("CCCN(CCC)C(=O)C(CCC(=O)O)NC(=O)c1ccccc1 (stereo unspecified) [PROGLUMIDE]", "AC50", "> 30 µM"),
    ("C[C@@H]1O[C@@H](O[C@@H]2C=C3CC[C@@H]4[C@H](CC[C@]5(C)[C@@H](c6ccc(=O)oc6)CC[C@]45O)[C@@]3(C)CC2)[C@H](O)[C@H](O)[C@H]1O", "AC50", "> 30 µM"),
    ("O=C(O)CCCCCCCC(=O)O", "AC50", "> 10 µM"),
    ("CCC(CC)(CC(=O)Nc1cccc(/C=C/c2nc(C3CCC3)cs2)c1)C(=O)O", "AC50", "> 30 µM"),
    ("CCCC(C)C1(CC)C(=O)NC(=O)NC1=O (stereo unspecified)", "AC50", "> 10 µM"),
]

Consider O=C(O[C@H]1C[C@H]2CC[C@@H](C1)[N+]21CCCC1)C(O)(c1ccccc1)c1ccccc1 . Its measured AC50 is > 30 µM

###

Target: Type-1 angiotensin II receptor (Homo sapiens, UniProt P30556); further: assay procedure not described here
Sequence (P30556 whole entry): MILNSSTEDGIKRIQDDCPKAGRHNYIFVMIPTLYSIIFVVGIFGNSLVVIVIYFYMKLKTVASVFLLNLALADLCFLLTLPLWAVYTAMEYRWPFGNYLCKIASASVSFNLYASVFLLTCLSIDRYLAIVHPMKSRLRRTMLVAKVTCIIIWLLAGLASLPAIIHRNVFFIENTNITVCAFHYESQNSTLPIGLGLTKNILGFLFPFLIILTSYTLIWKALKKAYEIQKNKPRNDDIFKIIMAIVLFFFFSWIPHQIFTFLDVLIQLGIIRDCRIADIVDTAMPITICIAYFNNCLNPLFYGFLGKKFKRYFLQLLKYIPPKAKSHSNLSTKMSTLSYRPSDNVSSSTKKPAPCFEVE
Overview of recorded AC50 for various compounds

Worked examples follow.
# compound, obs value
records = [
    ("Cc1nnc2n1-c1ccc(Cl)cc1C(c1ccccc1Cl)=NC2", "> 30 µM"),
    ("CO/N=C(\\C(=O)N[C@@H]1C(=O)N2C(C(=O)O)=C(CSc3nnnn3C)CS[C@H]12)c1csc(N)n1", "> 30 µM"),
    ("CCCCCCOc1ccccc1C(N)=O [EXALAMIDE]", "> 30 µM"),
    ("C[C@](N)(Cc1ccc(O)c(O)c1)C(=O)O", "> 10 µM"),
    ("CN(C)CC/C=C1\\c2ccccc2CSc2ccccc21 [DOTHIEPIN]", "> 30 µM"),
]

The compound CC(CC(c1ccccc1)c1ccccc1)NC(C)(C)C (stereo not given) on Type-1 angiotensin II receptor (Homo sapiens, UniProt P30556): AC50 was > 30 µM

###

This section lists AC50 readings for Vasopressin V1a receptor (Homo sapiens, UniProt P37288).

# compound, obs value
measured = [
    ("CO[C@H]1C[C@@H]2CC[C@@H](C)[C@@](O)(O2)C(=O)C(=O)N2CCCC[C@H]2C(=O)O[C@H]([C@H](C)C[C@@H]2CC[C@@H](O)[C@H](OC)C2)CC(=O)[C@H](C)/C=C(\\C)[C@@H](O)[C@@H](OC)C(=O)[C@H](C)C[C@H](C)/C=C/C=C/C=C/1C", "> 30 µM"),
]

Consider COCCCN1CCC(NC(=O)c2cc(Cl)c(N)c3c2OCC3)CC1 [PRUCALOPRIDE] . Its measured AC50 is > 30 µM

Consider CCOC(=O)[C@H](CCc1ccccc1)N[C@@H](C)C(=O)N1C(=O)N(C)C[C@H]1C(=O)O . Its measured AC50 is > 30 µM

Consider CC[C@@H](C(N)=O)N1CCCC1=O . Its measured AC50 is > 30 µM

Consider CNC1Cc2ccccc2N(C)c2ccccc21 (stereo not drawn) . Its measured AC50 is > 30 µM

Consider C=CCC1(C(C)CC)C(=O)NC(=O)NC1=O (stereo not drawn) . Its measured AC50 is > 10 µM

Consider C=CCN1CCCC1CNC(=O)c1cc(S(N)(=O)=O)cc(OC)c1OC (stereo not drawn) [VERALIPRIDE] . Its measured AC50 is > 30 µM

Consider CN1C(=O)C(O)N=C(c2ccccc2Cl)c2cc(Cl)ccc21 (stereo not drawn) . Its measured AC50 is > 30 µM

Consider CNC(C)CCC=C(C)C (stereo not drawn) . Its measured AC50 is > 30 µM

Consider COc1cc2c(N)nc(N3CCN(C(=O)OCC(C)(C)O)CC3)nc2c(OC)c1OC . Its measured AC50 is > 30 µM

Consider Cn1nnc2c(C(N)=O)ncn2c1=O [TEMOZOLOMIDE] . Its measured AC50 is > 30 µM

Consider CCOc1ccc(Cc2cc([C@@H]3O[C@H](CO)[C@@H](O)[C@H](O)[C@H]3O)ccc2Cl)cc1 . Its measured AC50 is > 30 µM

Consider CC(=O)NCCCS(=O)(=O)O [ACAMPROSATE] . Its measured AC50 is > 30 µM

Consider O=C(O)[C@H](CC(=O)N1C[C@H]2CCCC[C@H]2C1)Cc1ccccc1 [MITIGLINIDE] . Its measured AC50 is > 10 µM

Consider COc1ccc2c3c1O[C@H]1C(=O)CC[C@@]4(O)[C@@H](C2)N(C)CC[C@]314 . Its measured AC50 is > 30 µM

Consider CCCC(C)C1(CC)C(=O)NC(=O)NC1=O (stereo not drawn) . Its measured AC50 is > 10 µM

Consider CN(C)CCC(c1ccc(Cl)cc1)c1ccccn1 (stereo not drawn) . Its measured AC50 is > 10 µM

Consider NCC(CC(=O)O)c1ccc(Cl)cc1 (stereo not drawn) . Its measured AC50 is > 30 µM

###

Overview of recorded AC50 for various molecules
Biological target: Voltage-gated inwardly rectifying potassium channel KCNH2 (Homo sapiens); further: assay procedure not described here
Sequence (Q12809 whole entry): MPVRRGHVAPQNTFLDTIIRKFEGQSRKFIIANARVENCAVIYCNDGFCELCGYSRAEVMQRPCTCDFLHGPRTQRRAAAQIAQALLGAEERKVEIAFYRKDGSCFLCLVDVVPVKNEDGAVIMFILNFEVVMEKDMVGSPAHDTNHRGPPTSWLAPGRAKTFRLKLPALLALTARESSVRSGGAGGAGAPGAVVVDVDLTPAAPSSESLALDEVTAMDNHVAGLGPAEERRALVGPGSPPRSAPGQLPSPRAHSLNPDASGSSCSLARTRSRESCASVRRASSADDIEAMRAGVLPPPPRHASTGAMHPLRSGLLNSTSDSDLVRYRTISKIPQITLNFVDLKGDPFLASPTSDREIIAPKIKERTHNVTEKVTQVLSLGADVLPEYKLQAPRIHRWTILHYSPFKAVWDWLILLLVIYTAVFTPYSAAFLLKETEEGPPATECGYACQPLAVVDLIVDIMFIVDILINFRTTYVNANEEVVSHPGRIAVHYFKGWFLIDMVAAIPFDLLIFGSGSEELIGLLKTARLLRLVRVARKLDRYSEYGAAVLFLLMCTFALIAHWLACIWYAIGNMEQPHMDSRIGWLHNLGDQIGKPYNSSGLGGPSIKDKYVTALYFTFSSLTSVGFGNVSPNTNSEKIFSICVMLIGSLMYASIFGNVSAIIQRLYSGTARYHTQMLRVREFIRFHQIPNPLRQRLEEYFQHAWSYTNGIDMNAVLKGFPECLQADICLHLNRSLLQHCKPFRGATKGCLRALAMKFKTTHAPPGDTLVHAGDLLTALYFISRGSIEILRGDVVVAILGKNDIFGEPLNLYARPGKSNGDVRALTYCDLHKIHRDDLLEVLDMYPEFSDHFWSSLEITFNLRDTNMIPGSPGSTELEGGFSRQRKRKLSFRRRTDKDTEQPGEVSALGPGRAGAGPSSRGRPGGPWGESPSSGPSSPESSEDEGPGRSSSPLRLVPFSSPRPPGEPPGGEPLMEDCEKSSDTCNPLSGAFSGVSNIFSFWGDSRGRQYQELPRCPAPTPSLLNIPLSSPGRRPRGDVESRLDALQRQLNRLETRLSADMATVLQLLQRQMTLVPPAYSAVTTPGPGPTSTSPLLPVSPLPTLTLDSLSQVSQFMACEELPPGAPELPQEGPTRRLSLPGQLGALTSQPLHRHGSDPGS
Type: functional
Settings: read-out: AC50; further: assay procedure not described here

The molecule CC(C)COC(=O)OCN1C(=O)CN(CCN2CC(=O)N(COC(=O)OCC(C)C)C(=O)C2)CC1=O on Voltage-gated inwardly rectifying potassium channel KCNH2 (Homo sapiens): AC50 was > 30 µM

###

Overview of recorded AC50 for various molecules
Target: 5-hydroxytryptamine receptor 1A (Homo sapiens, UniProt P08908); further: assay procedure not described here
Sequence (P08908 whole entry): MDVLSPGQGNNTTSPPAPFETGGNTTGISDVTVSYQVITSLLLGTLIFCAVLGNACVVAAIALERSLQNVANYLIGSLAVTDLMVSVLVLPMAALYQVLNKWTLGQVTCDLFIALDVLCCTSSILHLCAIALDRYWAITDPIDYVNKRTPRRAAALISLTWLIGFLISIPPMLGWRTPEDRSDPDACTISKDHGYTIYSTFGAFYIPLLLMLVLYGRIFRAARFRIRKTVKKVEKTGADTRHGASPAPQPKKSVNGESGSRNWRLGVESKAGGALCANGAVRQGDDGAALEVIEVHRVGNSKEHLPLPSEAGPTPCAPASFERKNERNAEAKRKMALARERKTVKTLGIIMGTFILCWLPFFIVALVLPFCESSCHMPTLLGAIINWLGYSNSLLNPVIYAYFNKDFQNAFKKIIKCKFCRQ
Type: functional, cell-based

# molecule, target, obs value
records = [
    ("Nc1ccn([C@H]2CC[C@@H](CO)O2)c(=O)n1 [ZALCITABINE]", "5-hydroxytryptamine receptor 1A (Homo sapiens, UniProt P08908)", "> 10 µM"),
]

Consider CCCN(CCC)C(=O)C(CCC(=O)O)NC(=O)c1ccccc1 (stereo not drawn) [PROGLUMIDE] . Its measured AC50 is > 10 µM

Consider C=CCN1CCCC1CNC(=O)c1cc(S(N)(=O)=O)cc(OC)c1OC (stereo not drawn) [VERALIPRIDE] . Its measured AC50 is > 30 µM

Consider CC(=O)OCC(=O)[C@@]12N=C(C)O[C@@H]1C[C@H]1[C@@H]3CCC4=CC(=O)C=C[C@]4(C)[C@H]3[C@@H](O)C[C@@]12C [DEFLAZACORT] . Its measured AC50 is > 30 µM

Consider Cc1ccc(-c2cc(C(F)(F)F)nn2-c2ccc(S(N)(=O)=O)cc2)cc1 [CELECOXIB] . Its measured AC50 is > 10 µM

Consider COC(=O)C1=C(C)NC(C)=C(C(=O)OC(C)(C)CN(C)CCC(c2ccccc2)c2ccccc2)C1c1cccc([N+](=O)[O-])c1 (stereo not drawn) [LERCANIDIPINE] . Its measured AC50 is > 30 µM

Consider COC(=O)[C@H]1[C@H]2C[C@@H]3c4[nH]c5cc(OC)ccc5c4CCN3C[C@H]2C[C@@H](OC(=O)/C=C/c2cc(OC)c(OC)c(OC)c2)[C@@H]1OC [RESCINNAMINE] . Its measured AC50 is > 10 µM

Consider CN(C)CC/C=C1\c2ccccc2CSc2ccccc21 [DOTHIEPIN] . Its measured AC50 is > 30 µM
